TEST TARGET: UniProt P01116
Mark yes only for Kd values smaller than 8 µM; exact matches and larger values are no.

Task item: Hello, I'm reviewing records and need to know if Kd of Cc1nn2c(N3CCC(CCO)CC3)cc(-c3ccc(F)cc3)nc2c1-c1ccccc1 [Compound C39] is below 8 µM. Could you check?
Reply: no

* * *

TEST TARGET: KRAS (Homo sapiens, UniProt P01116, G12D)
Sequence (P01116 whole entry G12D): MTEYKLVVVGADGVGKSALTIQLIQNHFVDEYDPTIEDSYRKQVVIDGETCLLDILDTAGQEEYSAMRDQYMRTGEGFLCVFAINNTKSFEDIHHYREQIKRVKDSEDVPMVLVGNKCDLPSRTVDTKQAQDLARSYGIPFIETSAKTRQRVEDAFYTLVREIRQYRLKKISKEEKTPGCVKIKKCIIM
PROCEDURE SUMMARY: Microscale thermophoresis (MST) binding affinity to KRAS (Table 1)
MEASUREMENT CONDITIONS: 100 nM labeled KRAS, read-out: kD (dissociation constant)
PROPERTY NAME: Kd

As a guide, the following entries are already answered.
{"MOLECULAR STRING": "COCCN1CCN(c2cc(-c3ccccc3)nc3c(-c4ccccc4)c(C)nn23)CC1", "TEST TARGET": "KRAS (Homo sapiens, UniProt P01116, G12D)", "Kd": "> 76000 nM"}
{"MOLECULAR STRING": "OCCN1CCN(c2cc(-c3ccccc3)nc3c(-c4ccccc4)c(-c4ccccc4)nn23)CC1", "TEST TARGET": "KRAS (Homo sapiens, UniProt P01116, G12D)", "Kd": "880 nM"}
{"MOLECULAR STRING": "Cc1nn2c(NCCN(C)C)cc(-c3ccccc3)nc2c1-c1ccccc1", "TEST TARGET": "KRAS (Homo sapiens, UniProt P01116, G12D)", "Kd": "990 nM"}

Task item: I have this compound here, "Cc1nn2c(N3CCN(CCO)CC3)cc(-c3ccccc3)nc2c1-c1ccccc1" , and I need its recorded Kd.
Reply: 870 nM

Task item: Same question, "COc1ccccc1N1CCN(c2cc(-c3ccccc3)nc3c(-c4ccccc4)c(C)nn23)CC1" this time
Reply: > 86000 nM

* * *

TEST TARGET: G12D KRAS (Homo sapiens, UniProt P01116, G12D)
Sequence (P01116 1-188 isoform P01116-2 G12D): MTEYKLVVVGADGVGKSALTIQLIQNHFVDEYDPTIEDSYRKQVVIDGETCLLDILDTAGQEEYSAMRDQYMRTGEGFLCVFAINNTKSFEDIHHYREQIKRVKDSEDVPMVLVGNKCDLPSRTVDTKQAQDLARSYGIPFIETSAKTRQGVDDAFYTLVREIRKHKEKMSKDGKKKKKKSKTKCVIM
PROCEDURE SUMMARY: Intrinsic fluorescence (IF) binding affinity, G12D KRAS bound to GNP
pKd: −log10 of the molar value.
Parameter threshold = 5. Response is Met when pKd meets or exceeds it, else Not met.

A selection of reference data follows.
{"MOLECULAR STRING": "OCCN1CCN(c2cc(-c3ccccc3)nc3c(-c4ccccc4)c(-c4ccc(O)cc4)nn23)CC1", "CLASS ASSIGNMENT": "Not met"}
{"MOLECULAR STRING": "Cc1nn2c(N3CCN(CCO)CC3)cc(-c3ccc(O)cc3)nc2c1-c1ccccc1", "CLASS ASSIGNMENT": "Not met"}
{"MOLECULAR STRING": "Cc1nn2c(N3CCN(CCO)CC3)cc(-c3ccccc3)nc2c1-c1ccccc1", "CLASS ASSIGNMENT": "Met"}
{"MOLECULAR STRING": "Cc1nn2c(N3CCN(CCO)CC3)cc(-c3ccc(F)cc3)nc2c1-c1ccccc1", "CLASS ASSIGNMENT": "Met"}
{"MOLECULAR STRING": "Cc1nn2c(N3CCN(CCO)CC3)cc(-c3ccccc3)nc2c1-c1cc(F)cc(F)c1", "CLASS ASSIGNMENT": "Not met"}
{"MOLECULAR STRING": "Cc1nn2c(N3CCC(CCO)CC3)cc(-c3ccccc3)nc2c1-c1ccccc1", "CLASS ASSIGNMENT": "Not met"}
{"MOLECULAR STRING": "Cc1nn2c(N3CCN(CCO)CC3)cc(-c3cc(O)cc(O)c3)nc2c1-c1ccccc1", "CLASS ASSIGNMENT": "Not met"}
{"MOLECULAR STRING": "OCCN1CCN(c2cc(-c3ccccc3)nc3c(-c4ccccc4)c(-c4cc[nH]c4)nn23)CC1", "CLASS ASSIGNMENT": "Not met"}
{"MOLECULAR STRING": "Cc1nn2c(N3CCC(CCO)CC3)cc(-c3ccc(F)cc3)nc2c1-c1ccccc1", "CLASS ASSIGNMENT": "Not met"}

Next:
Task item: Hello, I need to know if "Cc1nn2c(N3CCN(CCO)CC3)cc(-c3cc(F)cc(F)c3)nc2c1-c1ccccc1" has measured pKd not below 5. Thanks!
Reply: Not met

* * *

TEST TARGET: WT KRAS (Homo sapiens, UniProt P01116)
Sequence (P01116 1-188 isoform P01116-2): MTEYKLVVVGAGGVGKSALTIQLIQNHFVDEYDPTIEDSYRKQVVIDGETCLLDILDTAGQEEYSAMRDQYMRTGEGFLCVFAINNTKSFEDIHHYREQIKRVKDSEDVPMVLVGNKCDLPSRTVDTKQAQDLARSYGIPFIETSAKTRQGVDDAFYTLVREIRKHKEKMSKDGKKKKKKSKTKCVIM
PROCEDURE SUMMARY: Intrinsic nucleotide exchange assay, WT KRAS
Type: biochemical
MEASUREMENT CONDITIONS: intrinsic nucleotide exchange, dose-response
# pEC50 listing for each entry below
# log scale: pEC50 equals minus log10 of the concentration in mol/L

Consider the worked cases shown below.
{"COMPOUND": "OCCN1CCN(c2cc(-c3ccccc3)nc3c(-c4ccccc4)c(-c4ccccc4)nn23)CC1 [C14″]", "pEC50": 4.91}
{"COMPOUND": "Cc1cc(N2CCN(CCO)CC2)n2nc(C)c(-c3ccccc3)c2n1 [C13″]", "pEC50": 4.54}

Continue with the compound presented below.
Task item: For Cc1nn2c(N3CCN(CCO)CC3)cc(-c3ccc(F)cc3)nc2c1-c1ccccc1 [C21″] , what is its reported pEC50?
Reply: 4.47

* * *

TEST TARGET: G12D KRAS (Homo sapiens, UniProt P01116, G12D)
PROCEDURE SUMMARY: Microscale thermophoresis (MST) Kd, G12D KRAS
Type: binding
PROPERTY NAME: Kd (nM)
Write the value in nM as a bare number.

{"MOLECULAR STRING": "OCCN1CCN(c2cc(-c3ccccc3)nc3c(-c4ccccc4)c(-c4ccccc4)nn23)CC1", "Kd (nM)": 880}
{"MOLECULAR STRING": "Cc1nn2c(N3CCN(CCO)CC3)cc(-c3ccccc3)nc2c1-c1ccccc1", "Kd (nM)": 870}

Task item: Entry "Cc1nn2c(NCCN(C)C)cc(-c3ccccc3)nc2c1-c1ccccc1" : reported Kd = ?
Reply: 990

Task item: Now the compound "Cc1nn2c(N3CCN(CCO)CC3)cc(-c3ccc(F)cc3)nc2c1-c1ccccc1"
Reply: 520

* * *

The following are reported Kd results, target or system wild type (WT) KRAS (Homo sapiens, UniProt P01116).
Give your result in µM as a bare value.

The examples below pair each entry with its known result.
{"MOLECULAR STRING": "Cc1nn2c(N3CCN(CCO)CC3)cc(-c3ccc(F)cc3)nc2c1-c1ccccc1", "MEASURED RESULT": 4.6}
{"MOLECULAR STRING": "Cc1nn2c(NCCCN(C)C)cc(-c3ccccc3)nc2c1-c1ccccc1", "MEASURED RESULT": 28.3}
{"MOLECULAR STRING": "OCCN1CCN(c2cc(-c3ccccc3)nc3c(-c4ccccc4)c(-c4ccccc4)nn23)CC1", "MEASURED RESULT": 12.3}

Continue with the next molecule.
Task item: Return reported Kd; argument: "Cc1nn2c(N3CCN(CCO)CC3)cc(-c3cc(O)cc(O)c3)nc2c1-c1ccccc1"
Reply: 8.4

* * *

TEST TARGET: G12D KRAS (Homo sapiens, UniProt P01116, G12D)
PROCEDURE SUMMARY: Microscale thermophoresis (MST) Kd, G12D KRAS
Type: binding
Protocol: Measurement of compound binding affinity to KKRAS using microscale thermophoresis (MST). MST is based on the movement of molecules in response to temperature gradient. […] Microscale thermophoresis (MST) assays were used to measure the affinity of lead compound analogs for KRAS. […] Thermophoresis is carried out and dissociation constant calculated by monitoring changes in fluorescence intensity. A monolith NT.115 Reader from NanoTemper can be used for MST experiments, with 40% MST and 20% LED power. […]
Kd listing for selected compounds.

Look over these answered cases.
{"MOLECULAR STRING": "Cc1nn2c(N3CCN(CCO)CC3)cc(-c3nccn3C)nc2c1-c1ccccc1", "MEASURED RESULT": "> 200 µM"}
{"MOLECULAR STRING": "Cc1cc(NCCN(C)C)n2nc(C)c(-c3ccccc3)c2n1", "MEASURED RESULT": "> 200 µM"}
{"MOLECULAR STRING": "Cc1nn2c(N3CCN(CCO)CC3)cc(-c3ccncc3)nc2c1-c1ccccc1", "MEASURED RESULT": "> 100 µM"}
{"MOLECULAR STRING": "COc1ccccc1N1CCN(c2cc(-c3ccccc3)nc3c(-c4ccccc4)c(C)nn23)CC1", "MEASURED RESULT": "> 86 µM"}

Task item: Which measured Kd value corresponds to "COCCN1CCN(c2cc(-c3ccccc3)nc3c(-c4ccccc4)c(C)nn23)CC1" ?
Reply: > 76 µM
